# Test system: MDA-MB-436 cells
# procedure summary: Cell proliferation assay (cell count)
# Format: cell-based
# experimental parameters: Homo sapiens, MDA-MB-436, 48 h
recorded endpoint: pIC50
pIC50 here: minus log base 10 of the concentration, concentration in moles per litre.

Incoming: Which pIC50 value belongs to `COC1=CC(=O)c2c(c(COc3c(F)cc(F)cc3F)cn2C)C1=O` ?
Outgoing: 6.77

----------
# Test system: MCF-7 cells
# procedure summary: Cell proliferation assay (cell count)
# Format: cell-based
# experimental parameters: Homo sapiens, MCF7, 48 h
recorded endpoint: IC50 (nM)
# output: bare number, implied unit nM

Incoming: Which IC50 value belongs to COC1=CC(=O)c2c(c(COc3c(F)cc(F)cc3F)cn2C)C1=O [IQ9] ?
Outgoing: 379
